# Tested On: Androgen Receptor/SRC-1 Co-activator, AR (gene 367) (UniProt P10275)
# Sequence (P10275 whole entry, looked up): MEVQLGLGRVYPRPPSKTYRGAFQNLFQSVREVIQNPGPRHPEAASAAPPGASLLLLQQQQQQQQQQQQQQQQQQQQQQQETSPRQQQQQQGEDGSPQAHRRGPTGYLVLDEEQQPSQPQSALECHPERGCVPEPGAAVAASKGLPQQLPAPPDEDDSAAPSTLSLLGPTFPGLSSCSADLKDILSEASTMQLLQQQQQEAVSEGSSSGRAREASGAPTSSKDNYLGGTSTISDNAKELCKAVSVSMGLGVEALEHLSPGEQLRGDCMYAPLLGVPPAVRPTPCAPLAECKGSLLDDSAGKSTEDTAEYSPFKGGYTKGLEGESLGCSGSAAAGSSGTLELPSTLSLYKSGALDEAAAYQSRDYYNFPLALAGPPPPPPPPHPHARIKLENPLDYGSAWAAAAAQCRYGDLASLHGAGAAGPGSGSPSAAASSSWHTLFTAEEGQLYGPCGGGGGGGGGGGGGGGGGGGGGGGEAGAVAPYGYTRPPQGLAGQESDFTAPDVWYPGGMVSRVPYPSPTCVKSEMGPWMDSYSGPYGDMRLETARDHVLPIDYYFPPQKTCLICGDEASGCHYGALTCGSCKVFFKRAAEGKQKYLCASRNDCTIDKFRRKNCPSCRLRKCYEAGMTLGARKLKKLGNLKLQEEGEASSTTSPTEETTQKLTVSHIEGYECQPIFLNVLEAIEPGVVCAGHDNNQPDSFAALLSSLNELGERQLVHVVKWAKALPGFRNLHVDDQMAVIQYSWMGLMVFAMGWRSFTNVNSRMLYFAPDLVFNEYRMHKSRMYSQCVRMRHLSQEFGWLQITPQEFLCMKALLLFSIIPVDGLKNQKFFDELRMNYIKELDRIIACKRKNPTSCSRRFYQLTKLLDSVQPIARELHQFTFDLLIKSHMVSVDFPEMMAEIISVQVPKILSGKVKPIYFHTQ
# Experimental Details: OT_AR_ARSRC1_0960: Odyssey Thera (OT) 16-hour HEK293T Protein-Complementation Assay for Androgen Receptor/SRC-1 Co-activator (AID 2283353);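 further: actives raise the signal above DMSO so potency reflects increased AR and SRC-1 complex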
Active and inactive are the calls of the source. How the source made its calls: active means hit-call score of the fitted dose curve at least 0.9, where 1 is the maximum; inconclusive means response in the unintended direction; inactive means score below 0.9.
// classify into t (active), f (inactive)

These solved cases illustrate the format of a correct answer.
| Compound | Label Class |
| --- | --- |
| CC(=O)O[C@H]1C[C@@H]2CC[C@@]1(C)C2(C)C | f |
| CCCCC1CCC(O)CC1 (configuration not stated) | f |
| CC1CCC(C(C)C)C(O)C1 (configuration not stated) | f |
| CCc1ccc(O)cc1 | f |
| CCCCCCCCCCCCCC(=O)OCC(O)CO (configuration not stated) | f |

query: Recorded test outcome, item BrCc1cccc(Oc2ccccc2)c1
result: f

query: Item: CCCCCCCCSCCO
result: f

query: Then OCc1cccc(Oc2ccccc2)c1 ?
result: f

query: Another compound: CCCCCCCCC=CCCCCCCCC1=NCCN1CCO
result: t

query: Record: CCc1cc(Cc2cc(CC)cc(C(C)(C)C)c2O)c(O)c(C(C)(C)C)c1
result: t

query: And for CC(=O)O[C@@H]1CC2CCC1(C)C2(C)C (some centres not stated) ?
result: f

query: Moving on to CC(C)CCCCCCc1ccc(OCCOCCO)cc1
result: f

---

# Experimental Details: ATG_NRF2_ARE_CIS: Attagene CIS-FACTORIAL HepG2 Assay for human Nuclear Factor Erythroid 2 Related Factor 2 (NFR2) response to Antioxidant Response Elements (ARE) (AID 2282992)
# Experimental Setup: HepG2 Attagene ARE/NRF2 reporter, transcription factor activity; actives raise or lower the signal
Activity calls are given as the source filed them. How the source made its calls: active means hit-call score of the fitted dose curve at least 0.9, where 1 is the maximum; inactive means score below 0.9.
The reply should be one of these categories: 1.0 = active, 0.0 = inactive

| Compound | Label Class |
| --- | --- |
| C=CC(C)(O)CCC=C(C)C (configuration not stated) | 0.0 |
| c1ccc(CCc2ccccc2)cc1 | 1.0 |
| CCCCCCC(CO)CCCC (configuration not stated) | 0.0 |
| CC1(C)C(=O)N(Cl)C(=O)N1Br | 0.0 |
| CC1(C)O[C@@H]2C[C@H]3[C@@H]4CCC5=CC(=O)C=C[C@]5(C)[C@@]4(F)[C@@H](O)C[C@]3(C)[C@]2(C(=O)CO)O1 | 0.0 |

query: Could you kindly confirm the outcome this assay logged for CC1(C)CCC[C@]2(C)[C@H]3CCO[C@]3(C)CC[C@@H]12 ?
result: 1.0

query: CCCOCCO , same question.
result: 0.0

---

# Tested On: PGR (gene 5241)
# Experimental Details: NVS_NR_hPR: NovaScreen (NVS) Nuclear Receptor Binding Assay for human Progestron Receptor (PR) (AID 2283360);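 further: active means loss of bound radioligand signal versus DMSO baseline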
Results filed as inconclusive are left out. Activity calls are given as the source filed them. The calls were made as follows: active = hit-call score of the fitted dose curve at least 0.9, where 1 is the maximum; inconclusive = response in the unintended direction; inactive = score below 0.9.
Quantity Measured: outcome

Example cases with answers are listed next.
| Structure Smiles String | outcome |
| --- | --- |
| CS(=O)(=O)c1ccc(C2=C(c3ccccc3)C(=O)OC2)cc1 | inactive |
| CN(c1nccc(=O)[nH]1)C1CCN(c2nc3ccccc3n2Cc2ccc(F)cc2)CC1 | inactive |
| COc1ccc(CCN2CCC(Nc3nc4ccccc4n3Cc3ccc(F)cc3)CC2)cc1 | inactive |
| Oc1c(Cl)cc(Cl)c(Cl)c1Cc1c(O)c(Cl)cc(Cl)c1Cl | inactive |

// next item, outcome requested
query: Please give the measured outcome for this compound: ClC(c1ccccc1)(c1ccccc1)c1ccccc1
result: inactive

---

# Read-out: Vascular cell adhesion molecule 1 (VCAM1), VCAM1 (gene 7412)
# Experimental Details: BSK_LPS_VCAM1: BioMAP Diversity Plus: LPS Assay for Vascular cell adhesion molecule 1 (VCAM1) Biomarker Activity (AID 2283086)
# Experimental Setup: primary human HUVEC with PBMC; actives raise or lower the signal
Activity calls are given as the source filed them. How the source made its calls: active means hit-call score of the fitted dose curve at least 0.9, where 1 is the maximum; inactive means score below 0.9.
Quantity Measured: AC50

| Molecule | Measured Value |
| --- | --- |
| CCCCOC(=O)CCCCCCCC(=O)OCCCC | inactive |
| C=CC(C)(O)CCC=C(C)C (stereo not given) | inactive |
| C=C(C)[C@H]1CC=C(C)C(=O)C1 | inactive |
| CC1(C)C2=CCCC(C)(C)[C@]23CC[C@H]1C3 | inactive |

query: Could you share which AC50 value was measured for C[C@@H]1CCN(C(=O)[C@H](CCCN=C(N)N)NS(=O)(=O)c2cccc3c2NC[C@H](C)C3)[C@@H](C(=O)O)C1 ?
result: inactive

query: Ok, now C=C(C)C(=O)OCC(CC)(COC(=O)C(=C)C)COC(=O)C(=C)C
result: 19.7 µM (active)

query: Now try CCC(C)c1cc([N+](=O)[O-])cc([N+](=O)[O-])c1OC(=O)OC(C)C (stereo not given) .
result: 16.8 µM (active)

query: # iterate: CC(C)(N=C=O)c1cccc(C(C)(C)N=C=O)c1
result: inactive

query: Now give it for Clc1cc(Cl)c(-c2c(Cl)c(Cl)cc(Cl)c2Cl)cc1Cl too.
result: 3.5 µM (active)

query: Consider next the molecule C=C(C)C(=O)OCCOCCOCCOCCOC(=O)C(=C)C in the same way.
result: inactive

query: What about CN(C)C(=S)SC(=S)N(C)C ?
result: 19.9 µM (active)

query: What do you have for O=C1c2ccccc2C(=O)c2c(O)ccc(O)c21 ?
result: inactive

query: Also CC1(C)CCC[C@]2(C)[C@H]3CCO[C@]3(C)CC[C@@H]12 , if possible.
result: inactive

query: One more molecule: O=C1OC2(c3ccccc31)c1ccc(O)c(Br)c1Oc1c2ccc(O)c1Br
result: 20 µM (active)

query: Another: CC(C=O)Cc1ccc(C(C)(C)C)cc1 (stereo not given)
result: inactive

query: Now give it for COc1ccc(OC)c(N=Nc2c(O)ccc3ccccc23)c1 too.
result: 20 µM (active)

query: Next molecule up: C1=CC2C3C=CC(C3)C2C1 (stereo not given)
result: inactive

query: How about CC(=O)c1c(C)c([N+](=O)[O-])c(C(C)(C)C)c([N+](=O)[O-])c1C ?
result: inactive

query: Try the molecule CCCCCC(C=O)=Cc1ccccc1
result: 30.4 µM (active)

query: What do you get for CSCCC=O ?
result: inactive

query: Now consider CC(CN=Cc1ccccc1O)N=Cc1ccccc1O (stereo not given) and answer again.
result: inactive

query: Let us now turn to CCN(CC)C(=O)N(CC)CC
result: inactive

query: Do the same for O=C1OC[C@H](Cc2cccc(O)c2)[C@H]1Cc1cccc(O)c1 please
result: inactive

query: Another molecule to look at: CS(=O)(=O)OCCCCOS(C)(=O)=O
result: inactive

query: Moving on to the next molecule: c1ccc2cc(Nc3ccc(Nc4ccc5ccccc5c4)cc3)ccc2c1
result: inactive

---

# Tested On: Retinoic acid receptor alpha (Homo sapiens) (UniProt P10276)
# Sequence (P10276 whole entry, looked up): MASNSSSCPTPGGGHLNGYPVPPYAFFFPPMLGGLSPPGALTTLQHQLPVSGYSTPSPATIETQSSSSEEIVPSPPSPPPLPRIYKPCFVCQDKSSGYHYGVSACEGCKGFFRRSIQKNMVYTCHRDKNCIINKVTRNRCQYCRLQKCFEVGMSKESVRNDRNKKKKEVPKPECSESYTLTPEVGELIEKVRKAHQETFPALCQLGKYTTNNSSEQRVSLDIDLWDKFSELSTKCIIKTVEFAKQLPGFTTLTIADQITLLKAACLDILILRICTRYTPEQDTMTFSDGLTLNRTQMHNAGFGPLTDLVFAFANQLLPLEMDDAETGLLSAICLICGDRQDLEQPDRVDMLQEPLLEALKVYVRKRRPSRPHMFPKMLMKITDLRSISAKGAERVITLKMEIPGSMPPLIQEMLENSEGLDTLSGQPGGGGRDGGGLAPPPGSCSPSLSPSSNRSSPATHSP
# Experimental Details: ATG_DR5_RAR_CIS: Attagene CIS-FACTORIAL HepG2 Assay for human Retinoic Acid Receptor Alpha (RARE), DR5 submotif (AID 2282934)
# Experimental Setup: HepG2 Attagene cis-factorial RARE DR5 reporter, mRNA; actives raise or lower the signal
Activity calls are given as the source filed them. The calls were made as follows: active = hit-call score of the fitted dose curve at least 0.9, where 1 is the maximum; inactive = score below 0.9.
I would appreciate it if you answered using one of these outcomes: yes (active), no (inactive)

// below: answered molecules
| Molecule | Label Class |
| --- | --- |
| CCCCCCCCCCCC(=O)OCC(O)CO (centres undefined) | yes |
| CCCC[P+](CCCC)(CCCC)CCCC | no |
| C=CC(=C)CCCC(C)(C)OC(C)=O | no |
| CN1CCOCC1 | no |
| Cc1ccc(S(=O)(=O)Oc2ccc(N=Nc3ccc(-c4ccc(N=Nc5c(O)ccc6cc(S(=O)(=O)O)cc(S(=O)(=O)O)c56)c(C)c4)cc3C)cc2)cc1 | no |

query: // outcome(item) with item = O=C(O)CCCCCCCCC(=O)O
result: no

query: Try this molecule too: CCOC(=O)[C@@H](C)Oc1ccc(Oc2nc3ccc(Cl)cc3o2)cc1
result: no

query: What about COCCc1ccc(OCC(O)CNC(C)C)cc1 (centres undefined) ?
result: no

---

# Experimental Details: CCTE_Simmons_CellTiterGLO_HEK293T: Viability Assessment in CCTE's Assays for Thyroperoxidase (TPO) Inhibition, Simmons Lab (AID 2283665)
Inconclusive results are not listed. Calls of active or inactive are those of the source. How the source made its calls: active means hit-call score of the fitted dose curve at least 0.9, where 1 is the maximum; inconclusive means response in the unintended direction; inactive means score below 0.9.
# valid calls are YES for active, NO for inactive; nothing else

Example entries and their recorded answers appear below.
| Structure Smiles String | Label Class |
| --- | --- |
| COc1ccc(N=Nc2cc(C)c(N=Nc3ccc(S(=O)(=O)O)cc3)cc2OC)cc1 | YES |
| O=C(O)CCCCCCCCC(=O)O | NO |
| [O-]n1ccccc1=S.[O-]n1ccccc1=S.[Zn+2] | YES |

query: Hi team, can someone confirm the assay call for O=c1c(O)c(-c2ccc(O)cc2)oc2cc(O)cc(O)c12 ?
result: NO

query: Param item: Cc1ccc(S(=O)(=O)Oc2ccc(N=Nc3ccc(-c4ccc(N=Nc5c(O)ccc6cc(S(=O)(=O)O)cc(S(=O)(=O)O)c56)c(C)c4)cc3C)cc2)cc1
result: YES
